assay: chemical genetic growth profiling, strain panel (AID 1159580);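 also: tested at 20 µM; growth read once vehicle control cultures reached saturation at 30 °C; 1 = growth at the plate median or of vehicle wells; lower values mean less growth of the strain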; settings: S. cerevisiae deletion strains, growth OD, locus YCL011C, strain gbp2, active compounds read low
The whole screen tested about 5,500 compounds, of which about 2,000 (36%) were called active. Not shown: some 18% with an inconclusive outcome. The list shows a part of the results.
MEASURED_METRIC: normalized growth
I only need the number, thanks.

(Q) Quote normalized growth reported for CC(=O)O[C@]1(C(C)=O)CCC2C3C[C@H](C)C4=CC(=O)CC[C@]4(C)C3CC[C@@]21C (stereo partly drawn) please.
(A) 0.931

(Q) Quote normalized growth reported for C=C1CC[C@H](O)C/C1=C/C=C1\CCC[C@]2(C)C([C@H](C)/C=C/[C@H](C)C(C)C)CC[C@@H]12 (stereo partly drawn) please.
(A) 1.02

(Q) Quote normalized growth reported for CC(C)CC1C(=O)N2CCC[C@H]2C2(O)O[C@](NC(=O)C3C=C4c5cccc6[nH]c(Br)c(c56)C[C@H]4N(C)C3)(C(C)C)C(=O)N12 (stereo partly drawn) please.
(A) 0.976

(Q) Quote normalized growth reported for CC(=O)O[C@]1(C(C)=O)CCC2C3C=C(C)C4=CC(=O)CCC4(C)C3CCC21C (stereo partly drawn) please.
(A) 0.975

(Q) Quote normalized growth reported for CCc1nc(N)nc(N)c1-c1ccc(Cl)cc1 please.
(A) 0.978

(Q) Quote normalized growth reported for CCCCCC(C)N (stereo not drawn) please.
(A) 1.02

(Q) Quote normalized growth reported for CC(=O)O[C@]1(C(C)=O)CCC2C3C=C(Cl)C4=CC(=O)CC[C@]4(C)C3CC[C@@]21C (stereo partly drawn) please.
(A) 1

(Q) Quote normalized growth reported for C1CCc2nnnn2CC1 please.
(A) 1

(Q) Quote normalized growth reported for Cc1cc(OC(=O)N2CCCCC2)c(C(C)C)cc1[N+](C)(C)C please.
(A) 0.998

(Q) Quote normalized growth reported for CC(C)[N+](C)(CCOC(=O)C1c2ccccc2Oc2ccccc21)C(C)C please.
(A) 1.01

(Q) Quote normalized growth reported for OCc1ccccc1O[C@@H]1O[C@H](CO)[C@@H](O)[C@H](O)[C@H]1O please.
(A) 0.98

(Q) Quote normalized growth reported for CC[C@H]1OC(=O)C[C@@H](O)[C@H](C)[C@@H](O[C@@H]2O[C@H](C)[C@@H](O[C@H]3C[C@@](C)(O)[C@@H](O)[C@H](C)O3)[C@H](N(C)C)[C@H]2O)[C@@H](CC=O)C[C@@H](C)C(=O)/C=C/C(C)=C/[C@@H]1CO[C@@H]1O[C@H](C)[C@@H](O)[C@@H](OC)[C@H]1OC please.
(A) 0.995

(Q) Quote normalized growth reported for CC(C)[C@H](N)C(=O)OCCOCn1cnc2c(=O)[nH]c(N)nc21 please.
(A) 1.01

====

test: chemical genetic growth profiling, strain panel (AID 1159580);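 also: tested at 20 µM; growth read once vehicle control cultures reached saturation at 30 °C; 1 = growth at the plate median or of vehicle wells; lower values mean less growth of the strain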; details: S. cerevisiae deletion strains, growth OD, locus YLL001W, strain dnm1, active compounds read low
In all, about 5,500 compounds went through this assay and about 2,000 (36%) were called active. Not shown: some 18% with an inconclusive outcome. This is one part of the list.
MEASURED_METRIC: normalized growth
I only need the number, thanks.

(Q) Quote normalized growth reported for O=C1CC(c2ccc(O)c(O)c2)Oc2cc(O)cc(O)c21 (stereo not drawn) please.
(A) 0.992

(Q) Quote normalized growth reported for CC(=O)O[C@H]1C(=O)[C@@]2(C)C([C@H](OC(=O)c3ccccc3)[C@]3(O)C[C@H](O)C(C)=C1C3(C)C)[C@]1(OC(C)=O)CO[C@@H]1C[C@@H]2O (stereo partly drawn) please.
(A) 1

(Q) Quote normalized growth reported for CC(=O)OCC(CCn1cnc2cnc(N)nc21)COC(C)=O please.
(A) 0.986
